Each entry below carries its recorded VPS34 Percent Inhibition.
- system: VPS34 (Homo sapiens)
- Construct: GST (N); host or cells: SF9 insect cells (baculovirus)
- Sequence (Q8NEB9 whole entry): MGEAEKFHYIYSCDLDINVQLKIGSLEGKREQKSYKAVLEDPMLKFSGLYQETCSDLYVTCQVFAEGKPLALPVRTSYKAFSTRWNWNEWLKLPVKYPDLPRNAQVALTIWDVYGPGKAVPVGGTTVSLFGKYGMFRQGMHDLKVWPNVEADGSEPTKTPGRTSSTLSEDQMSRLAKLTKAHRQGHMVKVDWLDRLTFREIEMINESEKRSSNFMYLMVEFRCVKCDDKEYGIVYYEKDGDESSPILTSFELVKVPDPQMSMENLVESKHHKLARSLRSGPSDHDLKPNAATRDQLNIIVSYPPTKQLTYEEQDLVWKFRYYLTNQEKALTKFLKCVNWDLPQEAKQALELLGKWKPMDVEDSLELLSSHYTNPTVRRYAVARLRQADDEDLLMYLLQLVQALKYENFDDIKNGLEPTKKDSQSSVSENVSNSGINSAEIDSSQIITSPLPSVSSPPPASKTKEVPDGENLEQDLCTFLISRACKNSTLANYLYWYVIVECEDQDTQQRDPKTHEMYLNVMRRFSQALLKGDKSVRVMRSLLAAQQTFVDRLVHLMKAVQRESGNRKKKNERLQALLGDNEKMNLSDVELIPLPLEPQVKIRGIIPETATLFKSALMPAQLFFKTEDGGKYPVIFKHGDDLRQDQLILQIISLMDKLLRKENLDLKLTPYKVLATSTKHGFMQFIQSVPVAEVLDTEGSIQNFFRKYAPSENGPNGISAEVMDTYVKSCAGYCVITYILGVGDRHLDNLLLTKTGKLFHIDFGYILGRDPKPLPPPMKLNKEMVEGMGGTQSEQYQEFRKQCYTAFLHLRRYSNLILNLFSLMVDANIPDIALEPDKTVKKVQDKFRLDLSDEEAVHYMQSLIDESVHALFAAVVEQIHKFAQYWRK
- method_notes: Human VPS34 enzyme assay (Adapta TR-FRET)
- Format: biochemical
- test_parameters: at a 1.11 μM concentration
Please give only the number in your answer, with no unit.

Use the examples below as a reference point.
| molecular_string | system | quantitative_readout |
| --- | --- | --- |
| CC(=O)Nc1cc(-c2cn(-c3ccc(Cl)cc3Cl)c(-c3ccn[nH]3)n2)ccn1 | VPS34 (Homo sapiens) | 27 |
| CC(=O)Nc1cc(-c2nc(-c3ccc(Cl)cc3Cl)c(C(N)=O)[nH]2)ccn1 | VPS34 (Homo sapiens) | 28 |
| CC(=O)Nc1cc(-c2cn(-c3ccc(Cl)cc3Cl)c(-c3ccn[nH]3)n2)c(C)cn1 | VPS34 (Homo sapiens) | 35 |

Shifting focus to the compound that follows.
Input line: API: value(readout= VPS34 Percent Inhibition, system= VPS34 (Homo sapiens), query= CC(=O)Nc1cc(-c2cn(-c3ccccn3)c(-c3ccccc3Cl)n2)ccn1 )
Output line: 55
